TEST SUMMARY: Toxicity in brine shrimp at 100 ug/mL
Format: organism-based
MEASUREMENT CONDITIONS: artemia, in vivo; read-out: Activity
TEST READOUT: mortality at 100 ug/mL

INSERT INTO results (compound, obs_value) VALUES
  ('C/C=C(\C)C(=O)O[C@@H]1[C@@H]2OC[C@]3(C)[C@H](OC(C)=O)C[C@H](OC(C)=O)[C@@](C)([C@@H]23)[C@H]2CC(=O)O[C@H]3C[C@@H](c4ccoc4)C(C)=C3[C@]12C [OHCHNOLIDE B]', '100%'),
  ('C/C=C(\C)C(=O)O[C@H]1C[C@@H](O)[C@@](C)(C=O)[C@@H]2[C@@H](OC(C)=O)[C@H]3O[C@@H]4C[C@@H](c5ccoc5)C(C)=C4[C@@]3(C)[C@@H](CC(=O)OC)[C@@]12C', '100%');

Provide each entry's mortality at 100 ug/mL from the list below.
1. CC(=O)O[C@H]1C[C@@H](OC(C)=O)[C@@]2(C)CO[C@H]3[C@@H](OC(=O)c4ccccc4)[C@@]4(C)C5=C(C)[C@H](c6ccoc6)C[C@@H]5OC(=O)C[C@@H]4[C@]1(C)[C@@H]32 [OHCHNOLIDE A]
2. COC(=O)C[C@@H]1[C@]2(C)C3=C(C)[C@H](c4ccoc4)C[C@H]3O[C@@H]2[C@H](OC(C)=O)[C@H]2[C@](C)(C=O)[C@H](O)C[C@H](OC(=O)c3ccccc3)[C@]12C
3. C/C=C(\C)C(=O)O[C@H]1C[C@@H](OC(C)=O)[C@@]2(C)CO[C@H]3[C@@H](OC(=O)c4ccccc4)[C@@]4(C)C5=C(C)[C@H](c6ccoc6)C[C@@H]5OC(=O)C[C@@H]4[C@]1(C)[C@@H]32 [1-O-DEACETYL-1-O-TIGLOYLOHCHINOLIDE A]
4. CC(=O)O[C@@H]1C[C@H](O)[C@@]2(C)[C@H]3[C@@H](OC[C@]13C)[C@@H](OC(=O)c1ccccc1)[C@@]1(C)C3=C(C)[C@H](c4ccoc4)C[C@@H]3OC(=O)C[C@@H]12 [1-O-DEACETYLOHCHINOLIDE A]

output:
1. 100%
2. 100%
3. 100%
4. 100%
